B1: library; numbered along this chain (parent)
chain: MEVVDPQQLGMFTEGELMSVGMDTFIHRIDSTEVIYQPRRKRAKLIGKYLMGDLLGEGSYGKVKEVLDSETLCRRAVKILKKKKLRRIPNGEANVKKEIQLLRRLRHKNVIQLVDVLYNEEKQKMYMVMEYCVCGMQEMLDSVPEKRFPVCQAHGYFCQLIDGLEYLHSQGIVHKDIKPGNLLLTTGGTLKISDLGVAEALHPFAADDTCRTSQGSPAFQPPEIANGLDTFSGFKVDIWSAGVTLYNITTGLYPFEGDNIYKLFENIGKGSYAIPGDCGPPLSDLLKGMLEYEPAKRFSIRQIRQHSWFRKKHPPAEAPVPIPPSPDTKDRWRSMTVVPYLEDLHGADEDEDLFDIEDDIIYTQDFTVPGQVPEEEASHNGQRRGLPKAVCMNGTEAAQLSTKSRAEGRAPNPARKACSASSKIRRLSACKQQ

Variants of: B1
measurement_notes: STK11 functional score (HeLa growth suppression), rescaled enrichment; synonymous median = 1, nonsense median = 0 (normalised score)
conditions_used: with HeLa; variant type: missense
Listed below: STK11 functional score values for each entry.

# input // lookup STK11 functional score for M129T
# output 0.97

New cases:
# input // lookup STK11 functional score for D350T
# output 1.47
